For each entry below, report its GI50 value.
Tested on: LoVo
Assay: SRB colorimetric assay of cell growth and viability, LoVo
Type: cell-based, human
Conditions: 48 hours exposure, SRB
Your answer should be a plain number; it is taken to be in nM.

Item: C/C=C1\NC(=O)[C@H](Cc2ccccc2)NC(=O)[C@@H](C(C)C)NC(=O)[C@@H]([C@@H](C)CC)NC(=O)[C@H](NC(=O)[C@H](NC(=O)[C@H](CCCN)NC(=O)[C@H]2CCCN2C(=O)[C@H](NC(=O)[C@@H](NC(=O)[C@@H](NC(=O)[C@H](NC(=O)CC[C@@H](C)CC)C(C)C)[C@@H](C)OC(=O)C(F)(F)F)C(C)C)C(C)C)[C@@H](C)CC)[C@@H](C)OC(=O)[C@H](C(C)C)NC1=O | GI50: 168

Item: C/C=C1\NC(=O)[C@H](Cc2ccccc2)NC(=O)[C@@H](C(C)C)NC(=O)[C@@H]([C@@H](C)CC)NC(=O)[C@H](NC(=O)[C@H](NC(=O)[C@H](CCCNC(=O)C(F)(F)F)NC(=O)[C@H]2CCCN2C(=O)[C@H](NC(=O)[C@@H](NC(=O)[C@@H](NC(=O)[C@H](NC(=O)CC[C@@H](C)CC)C(C)C)[C@@H](C)OC(=O)C(F)(F)F)C(C)C)C(C)C)[C@@H](C)CC)[C@@H](C)OC(=O)[C@H](C(C)C)NC1=O | GI50: 125

###

System: K-562
Test: SRB colorimetric assay of cell growth and viability, K-562
Assay type: cell-based, human
Conditions: K-562; 48 hours exposure; read-out: LC50 K-562
Where a SMILES comes first, the peptide text is derived from it. Bridges are numbered along the chain shown (N, C = ends). [ ]: non-standard residue; d: D form. The star is where a group is joined. d(aIle) = CC[C@H](C)[C@@H](N)C(=O)O; d(aThr) = C[C@@H](O)[C@@H](N)C(=O)O; Hexanoyl(5-Me) = CC(C)CCCC(=O)*; Orn = NCCC[C@H](N)C(=O)O; Dhb = C/C=C(\N)C(=O)O
Observation Type: CC50

Item: C/C=C1\NC(=O)[C@H](Cc2ccc(F)c(F)c2)NC(=O)[C@@H](C(C)C)NC(=O)[C@@H]([C@@H](C)CC)NC(=O)[C@H](NC(=O)[C@H](NC(=O)[C@H](CCCN)NC(=O)[C@H]2CCCN2C(=O)[C@H](NC(=O)[C@@H](NC(=O)[C@@H](NC(=O)[C@H](NC(=O)CCCC(C)C)C(C)C)[C@@H](C)O)C(C)C)C(C)C)[C@@H](C)CC)[C@@H](C)OC(=O)[C@H](C(C)C)NC1=O [Compound 84, [Phe(3,4-F2)^3]-KF] | CC50: 1.42 µM

Item: C/C=C1\NC(=O)[C@H](Cc2ccccc2)NC(=O)[C@@H](C(C)C)NC(=O)[C@@H]([C@@H](C)CC)NC(=O)[C@H](NC(=O)[C@H](NC(=O)[C@H](CCCN)NC(=O)[C@H]2CCCN2C(=O)[C@H](NC(=O)[C@@H](NC(=O)[C@H](C)NC(=O)[C@H](NC(=O)CCCC(C)C)C(C)C)C(C)C)C(C)C)[C@@H](C)CC)[C@@H](C)OC(=O)[C@H](C(C)C)NC1=O [Compound 112, [Ala^12]-KF] ({Hexanoyl(5-Me)}-[dV]AV[dV][dP][Orn][d(aIle)][d(aThr)][d(aIle)][dV]F[Dhb]V; ester 8-C) | CC50: 6.91 µM

###

System: HT-29
Experiment: SRB colorimetric assay of cell growth and viability, HT-29
Format: cell-based, human
Conditions: 48 hours exposure
For each entry below, report its TGI HT-29 value.
Your answer should be a plain number; it is taken to be in Molar.

Value (TGI HT-29, HT-29) for record C/C=C1\NC(=O)[C@H](Cc2ccccc2)NC(=O)[C@@H](C(C)C)NC(=O)[C@@H]([C@@H](C)CC)NC(=O)[C@H](NC(=O)[C@H](NC(=O)[C@H](CCCN)NC(=O)[C@H]2CCCN2C(=O)[C@H](NC(=O)[C@@H](NC(=O)[C@@H](NC(=O)[C@H](NC(=O)CCCCCCCCCCCCCCCCCCC)C(C)C)[C@@H](C)O)C(C)C)C(C)C)[C@@H](C)CC)[C@@H](C)OC(=O)[C@H](C(C)C)NC1=O [Compound 13, [Icos^14]-KF] = 2.32E−06

Value (TGI HT-29, HT-29) for record C/C=C1\NC(=O)[C@H](Cc2ccccc2)NC(=O)[C@@H](C(C)C)NC(=O)[C@@H]([C@@H](C)CC)NC(=O)[C@H](NC(=O)[C@H](NC(=O)[C@H](CCCN)NC(=O)[C@H]2CCCN2C(=O)[C@H](NC(=O)[C@@H](NC(=O)[C@H](NC(=O)[C@H](NC(=O)CCCC(C)C)C(C)C)[C@H](C)O)C(C)C)C(C)C)[C@@H](C)CC)[C@@H](C)OC(=O)[C@H](C(C)C)NC1=O [Compound 7, [D-Thr^12]-KF] = 6.77E−06

Value (TGI HT-29, HT-29) for record C/C=C1\NC(=O)[C@H](Cc2ccccc2)NC(=O)[C@@H](C(C)C)NC(=O)[C@@H]([C@@H](C)CC)NC(=O)[C@H](NC(=O)[C@H](NC(=O)[C@H](CCCN)NC(=O)[C@H]2CCCN2C(=O)[C@H](NC(=O)[C@@H](NC(=O)[C@@H](NC(=O)[C@H](NC(=O)Cc2ccc(C(F)(F)F)cc2)C(C)C)[C@@H](C)O)C(C)C)C(C)C)[C@@H](C)CC)[C@@H](C)OC(=O)[C@H](C(C)C)NC1=O [Compound 25, [p-CF3PhAc^14]-KF] = 1.41E−06

Value (TGI HT-29, HT-29) for record C/C=C1\NC(=O)[C@H](Cc2ccccc2)NC(=O)[C@@H](C(C)C)NC(=O)[C@@H]([C@@H](C)CC)NC(=O)[C@H](NC(=O)[C@H](NC(=O)[C@H](CCCN)NC(=O)[C@H]2CCCN2C(=O)[C@H](NC(=O)[C@@H](NC(=O)[C@@H](NC(=O)[C@@H](CC2CCCCC2)NC(=O)CCCC(C)C)[C@@H](C)O)C(C)C)C(C)C)[C@@H](C)CC)[C@@H](C)OC(=O)[C@H](C(C)C)NC1=O [Compound 8, [D-Cha^13]-KF] = 1.99E−06

Value (TGI HT-29, HT-29) for record C/C=C1\NC(=O)[C@H](Cc2ccccc2)NC(=O)[C@@H](C(C)C)NC(=O)[C@@H]([C@@H](C)CC)NC(=O)[C@H](NC(=O)[C@H](NC(=O)[C@H](CCCCN)NC(=O)[C@H]2CCCN2C(=O)[C@H](NC(=O)[C@@H](NC(=O)[C@@H](NC(=O)[C@H](NC(=O)CC[C@@H](C)CC)C(C)C)[C@@H](C)O)C(C)C)C(C)C)[C@@H](C)CC)[C@@H](C)OC(=O)[C@H](C(C)C)NC1=O [Compound 30, [Lys^8, (4S)-MeHex^14]-KF] = 2.99E−07

###

Test system: IGROV-ET
Test: SRB colorimetric assay of cell growth and viability, IGROV-ET
Format: cell-based, human
Details: 48 hours exposure; read-out: LC50 IGROV-ET
Where a SMILES comes first, the peptide text is derived from it. Bridges are numbered along the chain shown (N, C = ends). [ ]: non-standard residue; d: D form. The star is where a group is joined. d(aIle) = CC[C@H](C)[C@@H](N)C(=O)O; d(aThr) = C[C@@H](O)[C@@H](N)C(=O)O; Hexanoyl(5-Me) = CC(C)CCCC(=O)*; Orn = NCCC[C@H](N)C(=O)O; Dhb = C/C=C(\N)C(=O)O
Observation Type: CC50 (nM)
Your answer should be a plain number; it is taken to be in nM.

Item: C/C=C1\NC(=O)[C@H](Cc2ccccc2)NC(=O)[C@@H](C(C)C)NC(=O)[C@@H]([C@@H](C)CC)NC(=O)[C@H](NC(=O)[C@H](NC(=O)[C@H](CCCN)NC(=O)[C@H]2CCCN2C(=O)[C@H](NC(=O)[C@@H](NC(=O)[C@@H](NC(=O)[C@H](NC(=O)CCCC(C)C)C(C)C)[C@@H](C)O)C(C)C)C(C)C)[C@@H](C)CC)COC(=O)[C@H](C(C)C)NC1=O [Compound 3, [D-Ser^6]-KF] ({Hexanoyl(5-Me)}-[dV]TV[dV][dP][Orn][d(aIle)][dS][d(aIle)][dV]F[Dhb]V; ester 8-C) | CC50: 2110

Item: C/C=C1\NC(=O)[C@H](Cc2ccccc2)NC(=O)[C@@H](C(C)C)NC(=O)[C@@H]([C@@H](C)CC)NC(=O)[C@H](NC(=O)[C@H](NC(=O)[C@H](CCCCN)NC(=O)[C@H]2CCCN2C(=O)[C@H](NC(=O)[C@@H](NC(=O)[C@@H](NC(=O)[C@H](NC(=O)CCCC(C)C)C(C)C)[C@@H](C)O)C(C)C)C(C)C)[C@@H](C)CC)[C@@H](C)OC(=O)[C@H](C(C)C)NC1=O [Compound 5, [Lys^8]-KF] | CC50: 2830

Item: C/C=C1\NC(=O)[C@H](Cc2ccccc2)NC(=O)[C@@H](C(C)C)NC(=O)[C@@H]([C@@H](C)CC)NC(=O)[C@H](NC(=O)[C@H](NC(=O)[C@H](CCCN)NC(=O)[C@H]2CCCN2C(=O)[C@H](NC(=O)[C@@H](NC(=O)[C@@H](NC(=O)[C@H](NC(=O)CCCC(C)C)C(C)C)C(C)C)C(C)C)C(C)C)[C@@H](C)CC)[C@@H](C)OC(=O)[C@H](C(C)C)NC1=O [Compound 6, [Val^12]-KF] ({Hexanoyl(5-Me)}-[dV]VV[dV][dP][Orn][d(aIle)][d(aThr)][d(aIle)][dV]F[Dhb]V; ester 8-C) | CC50: 549

Item: C/C=C1\NC(=O)[C@H](Cc2ccccc2)NC(=O)[C@@H](C(C)C)NC(=O)[C@@H]([C@@H](C)CC)NC(=O)[C@H](NC(=O)[C@H](NC(=O)[C@H](CCCN)NC(=O)[C@H]2CCCN2C(=O)[C@H](NC(=O)[C@@H](NC(=O)[C@@H](NC(=O)[C@H](NC(=O)CCCCCCCCCC)C(C)C)[C@@H](C)O)C(C)C)C(C)C)[C@@H](C)CC)[C@@H](C)OC(=O)[C@H](C(C)C)NC1=O [Compound 15, [Und^14]-KF] | CC50: 3340

Item: C/C=C1\NC(=O)[C@H](Cc2ccccc2)NC(=O)[C@@H](C(C)C)NC(=O)[C@@H]([C@@H](C)CC)NC(=O)[C@H](NC(=O)[C@H](NC(=O)[C@H](CCCN)NC(=O)[C@H]2CCCN2C(=O)[C@H](NC(=O)[C@@H](NC(=O)[C@@H](NC(=O)[C@H](NC(=O)CCCNC(=N)N)C(C)C)[C@@H](C)O)C(C)C)C(C)C)[C@@H](C)CC)[C@@H](C)OC(=O)[C@H](C(C)C)NC1=O [Compound 29, [4-GuBut^14]-KF] | CC50: 6700
